Test system: PPARg:RXRa 270nM:90nM, anti-RXR (NR concentration 270 nM, RXRa partner concentration 90 nM)
ASSAY REMARKS: PBM binding z-score (relative to random genomic background probes); higher = stronger binding; sequences stand for … in GC…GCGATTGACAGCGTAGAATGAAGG
Quick reference for PBM binding z-score among some sequences

PRIMARY SEQUENCE: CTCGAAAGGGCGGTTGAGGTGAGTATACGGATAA
PBM binding z-score: -0.518
--
PRIMARY SEQUENCE: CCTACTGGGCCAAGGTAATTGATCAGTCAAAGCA
PBM binding z-score: 1.22
--
PRIMARY SEQUENCE: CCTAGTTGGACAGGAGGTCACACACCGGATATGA
PBM binding z-score: 2.96
--
PRIMARY SEQUENCE: TCTTGTAGATCTGCAGGTTAAGAAAGCTGGCCAA
PBM binding z-score: 1.01
--
PRIMARY SEQUENCE: ATCTCTAGGTAAAAGTTCAATGAATCCCGAGGAT
PBM binding z-score: 8.49
--
PRIMARY SEQUENCE: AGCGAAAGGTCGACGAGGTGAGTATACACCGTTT
PBM binding z-score: 3.62
--
PRIMARY SEQUENCE: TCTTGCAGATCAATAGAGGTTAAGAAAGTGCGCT
PBM binding z-score: 1.1
--
PRIMARY SEQUENCE: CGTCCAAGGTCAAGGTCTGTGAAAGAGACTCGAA
PBM binding z-score: 5.76
--
PRIMARY SEQUENCE: ATCTCGAGGTAACCAAGTTCAGTGAATGCCGAAC
PBM binding z-score: 0.361
--
PRIMARY SEQUENCE: TGTCAAATTTCAAAGGTAACGTAAGTATCCACAC
PBM binding z-score: 1.41
--
PRIMARY SEQUENCE: ATAGAAAGGTCGTGAGGTGAGTATACAGAAAGGC
PBM binding z-score: 4.37
--
PRIMARY SEQUENCE: ATCTCTAGGTAAAGATAGTTTAGTGAATGCAAAT
PBM binding z-score: 0.218

====

Test system: PPARg:RXRa 270nM:90nM, anti-RXR (NR concentration 270 nM, RXRa partner concentration 90 nM)
ASSAY REMARKS: PBM binding z-score (relative to random genomic background probes); higher = stronger binding; sequences stand for … in GC…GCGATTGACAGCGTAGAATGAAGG
Recorded PBM binding z-score, one value per entry.

PRIMARY SEQUENCE: GCGTCTGGGGCATCAGCAGGTTACCATAACTTAA
PBM binding z-score: 0.239

PRIMARY SEQUENCE: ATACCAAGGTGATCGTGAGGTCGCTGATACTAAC
PBM binding z-score: 0.558

PRIMARY SEQUENCE: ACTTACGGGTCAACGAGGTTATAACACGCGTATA
PBM binding z-score: 5.54

PRIMARY SEQUENCE: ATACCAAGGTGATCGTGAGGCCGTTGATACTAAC
PBM binding z-score: 0.165

PRIMARY SEQUENCE: ACTCGGAGGACAAAGGTCCGAGCTACGCCAGTGA
PBM binding z-score: 2.29

PRIMARY SEQUENCE: ATCTCTAGGTAAGCAAGTTCAGTGAATGCCGAAC
PBM binding z-score: 0.538

====

Tested on: LXRa:RXRa (NR concentration 270 nM, RXRa partner concentration 90 nM)
ASSAY REMARKS: PBM binding z-score (relative to random genomic background probes); higher = stronger binding; sequences stand for … in GC…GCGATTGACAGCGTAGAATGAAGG
Rule: PBM binding z-score under 1 gives Not fulfilled, otherwise Fulfilled.

PRIMARY SEQUENCE: TCTATTAGTTGATTAGGGCGACCGAAACAGCGGA
GROUP LABEL: Not fulfilled
--
PRIMARY SEQUENCE: CTACCAAGGTGAACAAGGTCGTAGATTACTATTC
GROUP LABEL: Fulfilled
--
PRIMARY SEQUENCE: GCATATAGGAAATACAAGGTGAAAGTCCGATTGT
GROUP LABEL: Not fulfilled
--
PRIMARY SEQUENCE: TTACCAAGCTGAAGGTCGTTGATCCCTCTGTAGA
GROUP LABEL: Fulfilled
--
PRIMARY SEQUENCE: AGTCAAAGTTCAGGACGAGGTAACGTATAGCACG
GROUP LABEL: Fulfilled
--
PRIMARY SEQUENCE: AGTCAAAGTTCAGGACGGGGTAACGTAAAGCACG
GROUP LABEL: Fulfilled

====

System: VDR homodimer (NR concentration 270 nM)
ASSAY REMARKS: PBM binding z-score (relative to random genomic background probes); higher = stronger binding; sequences stand for … in GC…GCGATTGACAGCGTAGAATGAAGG
# label = y if PBM binding z-score >= 0.4 else n

PRIMARY SEQUENCE: ATCGAAAGGTCGAGGTAAGTATAGAGAAAGGGAA
GROUP LABEL: y
--
PRIMARY SEQUENCE: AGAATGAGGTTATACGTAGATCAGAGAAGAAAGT
GROUP LABEL: y
--
PRIMARY SEQUENCE: ATACCAAGGTGATCGTGAGGTCTTTGATACTAAC
GROUP LABEL: y
--
PRIMARY SEQUENCE: TCTAGTAGGCCAGAGGGTCACTCAAGAGGTACGG
GROUP LABEL: y
--
PRIMARY SEQUENCE: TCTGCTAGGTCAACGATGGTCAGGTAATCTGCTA
GROUP LABEL: n
--
PRIMARY SEQUENCE: CGAACTAGGTCTAGGACAGTGAATCTCCGCACGC
GROUP LABEL: n
--
PRIMARY SEQUENCE: TCTTGTAGATCAACAGGATGTTAAGAAAGATCGA
GROUP LABEL: n
--
PRIMARY SEQUENCE: TTACCAAGGCGAAGGTCGTTGATCCCTCTGTAGA
GROUP LABEL: y
--
PRIMARY SEQUENCE: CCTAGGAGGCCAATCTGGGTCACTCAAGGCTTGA
GROUP LABEL: n
--
PRIMARY SEQUENCE: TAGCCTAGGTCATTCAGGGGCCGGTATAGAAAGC
GROUP LABEL: y
--
PRIMARY SEQUENCE: CATAAAGGGTCAGCTAGGCCAGAGTAGGGACGGC
GROUP LABEL: y
--
PRIMARY SEQUENCE: GTACCAAGGTGAATAGGTCGTTGTTGAGTAGGCG
GROUP LABEL: n
--
PRIMARY SEQUENCE: CCTTCTGGGCCAAAGGTCATTGATTCCAATGCTC
GROUP LABEL: y
--
PRIMARY SEQUENCE: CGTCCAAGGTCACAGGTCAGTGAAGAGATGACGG
GROUP LABEL: y
--
PRIMARY SEQUENCE: GCTAACAGGCCATTTGGGTCACTCAATGACGGGC
GROUP LABEL: y
--
PRIMARY SEQUENCE: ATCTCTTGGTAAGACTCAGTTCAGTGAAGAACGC
GROUP LABEL: y
--
PRIMARY SEQUENCE: CGTCCAAGGTCATAGGAGGTCAGTGATGACAGAT
GROUP LABEL: y
--
PRIMARY SEQUENCE: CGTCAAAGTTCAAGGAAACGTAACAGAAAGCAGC
GROUP LABEL: y
--
PRIMARY SEQUENCE: GCAGCTAGGTCAGGTTGGTCAGCTAACGGGTACG
GROUP LABEL: n
--
PRIMARY SEQUENCE: CCTAGTTGGTCAGTAGGTCACACACCGGATATGA
GROUP LABEL: y
